These measurements were taken from patent US7632829B2.

# System tested: human chemokine receptor 2 isoform B (Homo sapiens)
# Assay protocol: Calcium mobilization assay (FLIPR, CHOK1-CCR2B-A5 cells, 20 nM MCP-1)
# Setup conditions: Ca mobilisation assay, CCR2, antagonist activity vs 20 nM MCP-1
Listing of recorded pIC50 by entry.
Kindly note that pIC50 refers to -log10 of the concentration in mol/L and answer with the value alone.

Solved entries (count: 3):
>  <Compound>
CC1(CO)CCCN1CCCN1CCN(C(=O)/C=C/c2ccc(Cl)c(Cl)c2)CCC1=O (racemic) [Example 255]

>  <pIC50>
6.25

$$$$
>  <Compound>
O=C(/C=C/c1ccc(Cl)c(Cl)c1)N1CCC(=O)N(CC(O)CN2CCCC(O)C2)CC1 (racemic) [Example 281]

>  <pIC50>
6.89

$$$$
>  <Compound>
O=C(/C=C/c1ccc(Cl)c(Cl)c1)N1CCC(=O)N(CCC(O)CN2CCCC(CO)C2)CC1 (racemic) [Example 378]

>  <pIC50>
5.91

$$$$

Qu. Given the entry COCC1CCC(O)CN1CCCCN1CCN(C(=O)/C=C/c2ccc(Cl)c(F)c2)CCC1=O (racemic) [Example 418] , report its measured pIC50.
Ans. 5.83

Qu. Okay, and COC(=O)NC1CCN(CCCCN2CCN(C(=O)/C=C/c3ccc(Cl)c(Cl)c3)CCC2=O)CC1 [Example 441] ?
Ans. 7.66

Qu. Okay, and O=C(/C=C/c1ccc(Cl)c(Cl)c1)N1CCC(=O)N(CCCN2CCCC(O)C2)CC1 (racemic) [Example 81] ?
Ans. 6.69

* * *

Listing of recorded IC50 by entry.
# System tested: human chemokine receptor 2 isoform B (Homo sapiens, UniProt P41597)
# Construct: host or cells: CHOK1-CCR2B-A5 (CHO-K1)
# Sequence (P41597 1-360 isoform P41597-2): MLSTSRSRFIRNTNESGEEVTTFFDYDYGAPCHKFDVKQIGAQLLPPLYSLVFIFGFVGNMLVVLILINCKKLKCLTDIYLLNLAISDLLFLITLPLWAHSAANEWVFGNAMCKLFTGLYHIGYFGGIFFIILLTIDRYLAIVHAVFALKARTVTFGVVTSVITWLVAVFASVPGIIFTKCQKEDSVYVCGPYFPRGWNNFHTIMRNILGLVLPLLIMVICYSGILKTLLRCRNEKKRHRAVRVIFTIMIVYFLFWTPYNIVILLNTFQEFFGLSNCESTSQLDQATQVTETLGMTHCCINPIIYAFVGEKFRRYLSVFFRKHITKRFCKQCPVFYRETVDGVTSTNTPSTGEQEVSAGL
# Assay protocol: Calcium mobilization assay (FLIPR, CHOK1-CCR2B-A5 cells, 20 nM MCP-1)
# Assay type: cell-based
# Setup conditions: Ca mobilisation assay, CCR2, antagonist activity vs 20 nM MCP-1

Solved entries (count: 5):
>  <Molecule>
O=C(/C=C/c1ccc(Cl)c(Cl)c1)N1CCC(=O)N(CC(O)CN2CCN(C3CCCC3)CC2)CC1 (racemic) [Example 298]

>  <System tested>
human chemokine receptor 2 isoform B (Homo sapiens, UniProt P41597)

>  <Endpoint result>
0.281 µM

$$$$
>  <Molecule>
O=C(/C=C/c1ccc(Cl)c(Cl)c1)N1CCC(=O)N(CCCN2CCC(c3cc[nH]n3)CC2)CC1 [Example 57]

>  <System tested>
human chemokine receptor 2 isoform B (Homo sapiens, UniProt P41597)

>  <Endpoint result>
0.217 µM

$$$$
>  <Molecule>
CC1(CO)CCCN(CCCN2CCN(C(=O)/C=C/c3ccc(Cl)c(Cl)c3)CCC2=O)C1 (racemic) [Example 248]

>  <System tested>
human chemokine receptor 2 isoform B (Homo sapiens, UniProt P41597)

>  <Endpoint result>
0.226 µM

$$$$
>  <Molecule>
O=C(/C=C/c1ccc(Cl)c(Cl)c1)N1CCC(=O)N(CCC(O)CN2CCCCC2CO)CC1 (racemic) [Example 374]

>  <System tested>
human chemokine receptor 2 isoform B (Homo sapiens, UniProt P41597)

>  <Endpoint result>
0.58 µM

$$$$
>  <Molecule>
O=C(/C=C/c1ccc(Cl)c(Cl)c1)N1CCC(=O)N(CCCN2CCC(C(F)(F)F)CC2)CC1 [Example 72]

>  <System tested>
human chemokine receptor 2 isoform B (Homo sapiens, UniProt P41597)

>  <Endpoint result>
0.312 µM

$$$$

Qu. Given the entry CC1(O)CCCN(CCCN2CCN(C(=O)/C=C/c3ccc(Cl)c(Cl)c3)CCC2=O)C1 (racemic) [Example 232] , report its measured IC50.
Ans. 0.091 µM

Qu. Okay, and O=C(/C=C/c1ccc(Cl)c(Cl)c1)N1CCC(=O)N(CCCCN2CC[C@H](CO)[C@H](O)C2)CC1 (racemic) [Example 468] ?
Ans. 0.347 µM

Qu. Okay, and O=C(/C=C/c1ccc(Cl)c(Cl)c1)N1CCC(=O)N(CCCCN2CCC[C@H](O)[C@@H]2CO)CC1 (racemic) [Example 480] ?
Ans. 0.053 µM

Qu. Okay, and CC1CN(CCCCN2CCN(C(=O)/C=C/c3ccc(Cl)c(Cl)c3)CCC2=O)CCC1O (racemic) [Example 440] ?
Ans. 0.103 µM

Qu. Okay, and C[C@@]1(CO)CCN(CCCCN2CCN(C(=O)/C=C/c3ccc(Cl)c(Cl)c3)CCC2=O)C[C@H]1O [Example 474] ?
Ans. 0.106 µM

Qu. Okay, and NC(=O)COC1CCC(CO)N(CCCCN2CCN(C(=O)/C=C/c3ccc(Cl)c(Cl)c3)CCC2=O)C1 (racemic) [Example 485] ?
Ans. 0.075 µM

Qu. Okay, and O=C(/C=C/c1cccc(Cl)c1)N1CCC(=O)N(CCCN2CCC3(CC3)C(O)C2)CC1 (stereo not shown) [Example 496] ?
Ans. 0.007 µM

* * *

# System tested: human chemokine receptor 2 isoform B (Homo sapiens)
# Assay protocol: Calcium mobilization assay (FLIPR, CHOK1-CCR2B-A5 cells, 20 nM MCP-1)
# Setup conditions: Ca mobilisation assay, CCR2, antagonist activity vs 20 nM MCP-1
Measurement name: IC50 (nM)
Report only the number, with the unit nM understood.

Solved entries (count: 3):
>  <Compound>
O=C(/C=C/c1ccc(F)c(Cl)c1)N1CCC(=O)N(C[C@@H](O)CN2CCCCC2)CC1

>  <System tested>
human chemokine receptor 2 isoform B (Homo sapiens)

>  <IC50 [nM]>
96

$$$$
>  <Compound>
CC1CN(CC(O)CN2CCN(C(=O)/C=C/c3ccc(Cl)c(Cl)c3)CCC2=O)CCC1O (racemic)

>  <System tested>
human chemokine receptor 2 isoform B (Homo sapiens)

>  <IC50 [nM]>
981

$$$$
>  <Compound>
CC1CCCN1CCN1CCN(C(=O)/C=C/c2ccc(Cl)c(Cl)c2)CCC1=O (racemic)

>  <System tested>
human chemokine receptor 2 isoform B (Homo sapiens)

>  <IC50 [nM]>
765

$$$$

Qu. Given the entry CC1(C)CCN(CCCCN2CCN(C(=O)/C=C/c3ccc(Cl)c(F)c3)CCC2=O)CC1O (racemic) , report its measured IC50.
Ans. 52

* * *

# System tested: human chemokine receptor 2 isoform B (Homo sapiens, UniProt P41597)
# Assay protocol: Calcium mobilization assay (FLIPR, CHOK1-CCR2B-A5 cells, 20 nM MCP-1)
# Setup conditions: Ca mobilisation assay, CCR2, antagonist activity vs 20 nM MCP-1
pIC50: −log10 of the molar value.
Binary call on pIC50: Met from 7 upward, Not met beneath that.

>  <Compound>
CC1CCN(CC(O)CCN2CCN(C(=O)/C=C/c3ccc(Cl)c(Cl)c3)CCC2=O)CC1 (racemic)

>  <Assigned category>
Not met

$$$$

Qu. Record O=C(/C=C/c1ccc(Cl)c(Cl)c1)N1CCC(=O)N(CCN[C@H]2CC[C@H](O)CC2)CC1 ; criterion: pIC50 no lower than 7. Met?
Ans. Not met

Qu. Okay, and O=C(/C=C/c1ccc(Cl)c(Cl)c1)N1CCC(=O)N(CCCN2CCS(=O)(=O)CC2)CC1 ?
Ans. Not met

Qu. Okay, and O=C(/C=C/c1ccc(Cl)c(Cl)c1)N1CCC(=O)N(CC[C@H](O)CN2CCCCC2)CC1 ?
Ans. Not met

Qu. Okay, and O=C(O)C(CCCN1CCCCC1)N1CCN(C(=O)/C=C/c2ccc(Cl)c(Cl)c2)CCC1=O (racemic) ?
Ans. Not met

Qu. Okay, and CC1CC(O)CN(CCCN2CCN(C(=O)C=Cc3ccc(Cl)c(Cl)c3)CCC2=O)C1 (mixture of isomers) ?
Ans. Met

Qu. Okay, and O=C(/C=C/c1ccc(Cl)c(Cl)c1)N1CCC(=O)N(CCN2CCCC2)CC1 ?
Ans. Not met

Qu. Okay, and CC1CCN(CC(O)CN2CCN(C(=O)/C=C/c3ccc(Cl)c(Cl)c3)CCC2=O)CC1O (racemic) ?
Ans. Met

Qu. Okay, and O=C(/C=C/c1cccc(Cl)c1)N1CCC(=O)N(CCN2CCC(c3cccc(Cl)c3)CC2)CC1 ?
Ans. Not met

Qu. Okay, and O=C(/C=C/c1ccc(Cl)c(Cl)c1)N1CCC(=O)N(CCCN2CCC3(CC3)C(O)C2)CC1 (stereo not drawn) [Example 262] ?
Ans. Met

Qu. Okay, and COC1CCCN(CCCCN2CCN(C(=O)/C=C/c3ccc(Cl)c(Cl)c3)CCC2=O)C1 (racemic) ?
Ans. Not met

* * *

Listing of recorded pIC50 by entry.
# System tested: human chemokine receptor 2 isoform B (Homo sapiens, UniProt P41597)
# Assay protocol: Calcium mobilization assay (FLIPR, CHOK1-CCR2B-A5 cells, 20 nM MCP-1)
# Setup conditions: Ca mobilisation assay, CCR2, antagonist activity vs 20 nM MCP-1
# Experimental: CHOK1-CCR2B-A5 cells (from Euroscreen) stably overexpressing the human chemokine receptor 2 isoform B were cultured in Nutrient Hams F12 medium supplemented with 5% FBS, 100 U/ml penicillin, 100 μg/ml streptomycin, 400 μg/ml G418 and 5 μg/ml puromycin. […] Test compounds were added to the assay plate and agonist activity was monitored as fluorescence for 80 seconds with a FLIPR (488 nm excitation; 510-570 nm emission; Molecular Devices). […]
Kindly note that pIC50 refers to -log10 of the concentration in mol/L and answer with the value alone.

Solved entries (count: 3):
>  <Molecule>
O=C(/C=C/c1ccc(Cl)c(Cl)c1)N1CCC(=O)N(CCCN2CCC(O)C3(CC3)C2)CC1 (racemic)

>  <pIC50>
6.92

$$$$
>  <Molecule>
COCC1CCCN(CCCCN2CCN(C(=O)/C=C/c3ccc(Cl)c(Cl)c3)CCC2=O)C1 (racemic) [Example 432]

>  <pIC50>
7.80

$$$$
>  <Molecule>
C[C@]1(CO)CCN(CCCN2CCN(C(=O)/C=C/c3ccc(Cl)c(Cl)c3)CCC2=O)C[C@H]1O (racemic)

>  <pIC50>
8.00

$$$$

Qu. Given the entry O=C(/C=C/c1ccc(Cl)c(Cl)c1)N1CCC(=O)N(CCCN2CCC(O)(c3ncco3)CC2)CC1 , report its measured pIC50.
Ans. 5.93

Qu. Okay, and CC1(CO)CCCN1CC(O)CCN1CCN(C(=O)/C=C/c2ccc(Cl)c(Cl)c2)CCC1=O (racemic) ?
Ans. 6.63

Qu. Okay, and COC1CCCN(CC(O)CN2CCN(C(=O)/C=C/c3ccc(Cl)c(Cl)c3)CCC2=O)C1 (racemic) ?
Ans. 6.51

Qu. Okay, and COC(=O)N(C)C1CCN(CCCCN2CCN(C(=O)/C=C/c3ccc(F)c(Cl)c3)CCC2=O)CC1 ?
Ans. 6.54

Qu. Okay, and CC1CN(CCCCN2CCN(C(=O)/C=C/c3ccc(F)c(Cl)c3)CCC2=O)CCC1O (racemic) ?
Ans. 6.58

Qu. Okay, and CC1CCC(N(C)CCCN2CCN(C(=O)/C=C/c3ccc(Cl)c(Cl)c3)CCC2=O)CC1 (mixture of isomers) ?
Ans. 6.13

Qu. Okay, and CN(CCO)CC(O)CN1CCN(C(=O)/C=C/c2ccc(Cl)c(Cl)c2)CCC1=O (racemic) ?
Ans. 5.83
